These measurements were taken from PubChem BioAssay (NCI).

- Tested on: COLO 205 colon
- EXPERIMENTAL DETAILS: NCI-60 one-dose screen, 48 h
- TEST SETTINGS: 10 µM
The panel holds about 83,000 compounds, 20% with a hit somewhere; the sample as a whole holds those more often. Active and inactive are the calls of the source. The calls were made as follows: active = growth percent below 10; inactive = the rest.
Outcome field: choose from active, inactive

Asked: Tell me the recorded outcome of this test for CO[C@H]1CC(O[C@@H]2/C(C)=C/C[C@@H]3C[C@@H](C[C@]4(C=C[C@H](C)[C@@H](C5CCCCC5)O4)O3)OC(=O)[C@@H]3C=C(C)[C@@H](O)[C@H]4OC/C(=C\C=C\[C@@H]2C)[C@]43O)O[C@@H](C)C1O[C@H]1C[C@H](OC)[C@@H](O)[C@H](C)O1 (some centres undefined) .
Given back: active

Asked: Tell me the recorded outcome of this test for N#CC1=C(N)Oc2cc(N)ccc2C1c1cccnc1 (centres undefined) .
Given back: inactive

Asked: Tell me the recorded outcome of this test for CC1CCCC(C(=O)O)C1C(=O)O (centres undefined) .
Given back: inactive

Asked: Tell me the recorded outcome of this test for "Cc1ccc(NCCNCC(C)(C)O)c2c(=O)c3ccc(Cl)cc3sc12" .
Given back: active

====

- Test system: SNB-19 CNS
- EXPERIMENTAL DETAILS: NCI-60 one-dose screen, 48 h (100 = growth as untreated, 0 = no growth, -100 = all killed)
- TEST SETTINGS: 10 µM
Compounds without any hit were thinned out: in the full panel of roughly 83,000, 20% have a hit.
Attribute: growth
Only the number, expressed in %, is required.

These solved cases illustrate the format of a correct answer.
[[record]]
compound = "O=C(O)c1cc([N+](=O)[O-])ccc1Oc1ccccc1"
readout_value = 98.4

[[record]]
compound = "CCCc1cn(CC(=O)Nc2nc3ccccc3s2)nn1"
readout_value = 102

[[record]]
compound = "O=S(=O)(O)c1cccc(Nc2ccc3ccccc3c2)c1"
readout_value = 96.3


Asked: Could you tell me which growth is on file for "NC1=CC(=O)C(=O)c2cccnc21" ?
Given back: 66.5

Asked: Could you tell me which growth is on file for "O=C1c2c(c(=O)[nH]c3ccccc23)CCN1Cc1ccccc1" ?
Given back: 99.6

====

Attribute: growth
- Tested on: NCI-H23 lung
- EXPERIMENTAL DETAILS: NCI-60 one-dose screen, 48 h (100 = growth as untreated, 0 = no growth, -100 = all killed)
- TEST SETTINGS: 10 µM
The panel holds about 83,000 compounds, 20% with a hit somewhere; the sample as a whole holds those more often.
Only the number, expressed in %, is required.

Asked: So what growth did "c1cnc2[nH]cc(-c3nc(-c4ccsc4)cs3)c2c1" get with NCI-H23 lung?
Given back: 80.2

Asked: So what growth did COc1ccc(/C=C2\CCCC3=C2NC(N)=NC3c2ccc(OC)c(OC)c2)cc1OC (centres undefined) get with NCI-H23 lung?
Given back: 49.3

Asked: So what growth did CCN1CC(CCN2CCOCC2)C(C(c2ccccc2)c2ccccc2)C1=O (centres undefined) get with NCI-H23 lung?
Given back: 105

Asked: So what growth did "COc1ccc2cc(-c3nc4ccccc4s3)c(Cl)nc2c1OC" get with NCI-H23 lung?
Given back: 84.4

====

- Tested on: SF-295 CNS
- EXPERIMENTAL DETAILS: NCI-60 one-dose screen, 48 h (100 = growth as untreated, 0 = no growth, -100 = all killed)
- TEST SETTINGS: 10 µM
The panel holds about 83,000 compounds, 20% with a hit somewhere; the sample as a whole holds those more often. The source made the active and inactive calls. Rule for the calls: active = growth percent below 10; inactive = the rest.
PROPERTY MEASURED: growth

These solved cases illustrate the format of a correct answer.
[[record]]
compound = "COc1cc2c3c(n([C@@H]4CCOC4)c(=O)c2cc1OC)-c1cc2c(cc1C3=O)OCO2"
property_measured = "growth"
readout_value = "1.17% (active)"

[[record]]
compound = "CN(C)CCCOc1ccc(OCCCN(C)C)c2c1C(=O)c1ccccc1C2=O"
property_measured = "growth"
readout_value = "14.4% (inactive)"

[[record]]
compound = "CC1(C)N=C(N)N=C(N)N1c1cccc(C#N)c1"
property_measured = "growth"
readout_value = "35.3% (inactive)"


Asked: Could you tell me which growth is on file for CC[C@@H](C(=O)[C@H](C)[C@H](O)[C@@H](C)[C@H]1O[C@H]([C@@H](CC)C(=O)N(CC)CC)CC[C@H]1C)C1O[C@]2(C=C[C@@H](O)[C@]3(CC[C@@](C)([C@H]4CC[C@](O)(CC)[C@H](C)O4)O3)O2)[C@H](C)C[C@@H]1C (stereo not given in full) ?
Given back: -6.82% (active)

Asked: Could you tell me which growth is on file for C=CCN(CC=C)C(=O)[C@H](CC)[C@@H]1CC[C@@H](C)[C@@H]([C@H](C)[C@@H](O)[C@@H](C)C(=O)[C@H](CC)C2O[C@]3(C=C[C@@H](O)[C@]4(CC[C@@](C)([C@H]5CC[C@](O)(CC)[C@H](C)O5)O4)O3)[C@H](C)C[C@@H]2C)O1 (stereo not given in full) ?
Given back: -16% (active)

Asked: Could you tell me which growth is on file for "Nc1nc(-c2ccc(Cl)cc2)cc(-c2cc3ccccc3oc2=O)n1" ?
Given back: 89.1% (inactive)

====

- Test system: 786-0 renal
- EXPERIMENTAL DETAILS: NCI-60 one-dose screen, 48 h (100 = growth as untreated, 0 = no growth, -100 = all killed)
- TEST SETTINGS: 10 µM
The panel holds about 83,000 compounds, 20% with a hit somewhere; the sample as a whole holds those more often.
PROPERTY MEASURED: growth (%)
Only the number, expressed in %, is required.

These solved cases illustrate the format of a correct answer.
[[record]]
molecule = "Cc1cccc(N=Cc2ccccc2O)c1C"
assay_target = "786-0 renal"
units_label = "%"
readout_value = 94.5

[[record]]
molecule = "CCOC(=O)c1cocc1C(=O)O"
assay_target = "786-0 renal"
units_label = "%"
readout_value = 103

[[record]]
molecule = "NC(N)=N/N=C(\\c1ccccc1)C(O)c1ccccc1 (configuration not stated)"
assay_target = "786-0 renal"
units_label = "%"
readout_value = 98.3

[[record]]
molecule = "O=C(/C=C/c1cccc(B(O)O)c1)c1cccc(B(O)O)c1"
assay_target = "786-0 renal"
units_label = "%"
readout_value = -88.6

[[record]]
molecule = "COc1cc2c3c(n(C4CCN(C)CC4)c(=O)c2cc1OC)-c1cc2c(cc1C3=O)OCO2"
assay_target = "786-0 renal"
units_label = "%"
readout_value = 55.4

[[record]]
molecule = "N#CC1=C(N)Oc2cc(N)ccc2C1c1cccnc1 (configuration not stated)"
assay_target = "786-0 renal"
units_label = "%"
readout_value = 90.7

[[record]]
molecule = "CC(C)c1ccc(C(C)C(=O)N(CC2=C(C(C)c3ccccn3)c3ccccc3C2)C(C)C)cc1 (configuration not stated)"
assay_target = "786-0 renal"
units_label = "%"
readout_value = 40.9

[[record]]
molecule = "Cc1ccc(-c2c3c(N)nc(-c4cccnc4)nc3nc3c2c(C)nn3-c2ccccc2)cc1"
assay_target = "786-0 renal"
units_label = "%"
readout_value = 80.9

[[record]]
molecule = "CC(C)=CCC/C(C)=C/CC/C(C)=C/CC/C=C(\\C)CC/C=C(\\C)CCC(=O)Nc1ccn(C2OC(CO)C(O)C2(F)F)c(=O)n1 (configuration not stated)"
assay_target = "786-0 renal"
units_label = "%"
readout_value = -11.2

[[record]]
molecule = "COc1cc(-c2nn(-c3cccc(NC(=O)CCNc4ccc(N5CCOCC5)cc4)c3)cc2-c2ccncc2)ccc1Cl"
assay_target = "786-0 renal"
units_label = "%"
readout_value = 19.1


Asked: Could you tell me which growth is on file for "COc1cc2cc(Oc3ccc(NC(=O)c4ccccc4)cc3)c(C)nc2cc1OC" ?
Given back: 118

Asked: Could you tell me which growth is on file for "O=C(O)c1cc([N+](=O)[O-])ccc1Oc1ccccc1" ?
Given back: 104

====

- Test system: TK-10 renal
- EXPERIMENTAL DETAILS: NCI-60 one-dose screen, 48 h (100 = growth as untreated, 0 = no growth, -100 = all killed)
- TEST SETTINGS: 10 µM
About 83,000 compounds went through this panel and 20% of them were active in at least one assay; those are over-represented in the sample as a whole.
PROPERTY MEASURED: growth (%)
Only the number, expressed in %, is required.

[[record]]
compound = "Cc1ccc(C(=O)/C=C/c2ccccc2)s1"
assay_target = "TK-10 renal"
units_label = "%"
readout_value = 108

[[record]]
compound = "Nc1ccn(Cc2nnc(CCC(=O)c3nc4ccccc4[nH]3)o2)c(=O)n1"
assay_target = "TK-10 renal"
units_label = "%"
readout_value = 100

[[record]]
compound = "CCc1ccc(-c2ccc(-n3nc(C)c4c(N)nc(Cc5ccccc5)nc43)cc2)cc1"
assay_target = "TK-10 renal"
units_label = "%"
readout_value = 75

[[record]]
compound = "O=C1/C=C/[C@@H](O)[C@@H]2C[C@@H](O)C[C@H]2/C=C/CCC[C@H](CCc2ccc(C(F)(F)F)cc2)O1"
assay_target = "TK-10 renal"
units_label = "%"
readout_value = -40

[[record]]
compound = "CN(C)c1nc(N)c2nccnc2n1"
assay_target = "TK-10 renal"
units_label = "%"
readout_value = 104


The record that follows has no growth shown yet.
Asked: Could you tell me which growth is on file for CC1CCCC(C(=O)O)C1C(=O)O (stereo unspecified) ?
Given back: 93.8
